tested on: Staphylococcus aureus; assay: Antimicrobial activity against methicillin-resistant Staphylococcus aureus ATCC 43300 assessed as inhibition of microbial growth incubated for 16 hrs by broth microdilution method; assay type: functional; conditions: ATCC 43300, 16 h
assay_metric: MIC

smiles_structure=C/C1=C\[C@H](O)[C@H](O)C/C(C)=C/[C@@]2(C)OC(=O)C=C(C(C)C)[C@@H]2CC1 target_or_test_system="Staphylococcus aureus" measured="≥ 100 µg/mL"
smiles_structure=C/C1=C\[C@H](O)C[C@]2(C)O[C@H]2C[C@@]2(C)OC(=O)C=C(C(C)C)[C@@H]2CC1 target_or_test_system="Staphylococcus aureus" measured="≥ 100 µg/mL"
smiles_structure=C/C1=C\[C@H](O)C[C@]2(C)O[C@H]2C[C@@]2(C)C(=O)C=C(C(C)C)[C@@H]2CC1 target_or_test_system="Staphylococcus aureus" measured="≥ 100 µg/mL"
smiles_structure=C/C1=C\[C@H]2/C(=C(/C)CC[C@@]3(CO)C(=O)C=C(C(C)C)[C@@H]3CC1)OC(=O)[C@@H]2[C@H](C)O target_or_test_system="Staphylococcus aureus" measured="≥ 100 µg/mL"
smiles_structure=COC(=O)[C@H]1[C@H](C)O[C@@]2(O)[C@H](C)CC[C@@]3(C)OC(=O)C=C(C(C)C)[C@@H]3C[C@H](O)/C(C)=C/[C@H]12 target_or_test_system="Staphylococcus aureus" measured="≥ 100 µg/mL"
smiles_structure=CC(=O)C[C@H]1/C=C(\C)[C@@H](O)C[C@H]2C(C(C)C)=CC(=O)O[C@]2(C)CC[C@@H](C)C1=O target_or_test_system="Staphylococcus aureus" measured="32 µg/mL"

====

tested on: Pseudomonas aeruginosa; test: Antimicrobial activity against Pseudomonas aeruginosa ATCC 15442 assessed as inhibition of microbial growth incubated for 16 hrs by broth microdilution method; format: functional; conditions: ATCC 15442, 16 h
Attribute: MIC
assay_metric: MIC

molecule=C/C1=C\[C@H](O)C[C@]2(C)O[C@H]2C[C@@]2(C)OC(=O)C=C(C(C)C)[C@@H]2CC1 assay_metric=MIC measured="≥ 100 µg/mL"
molecule=CC(=O)C[C@H]1/C=C(\C)[C@@H](O)C[C@H]2C(C(C)C)=CC(=O)O[C@]2(C)CC[C@@H](C)C1=O assay_metric=MIC measured="≥ 100 µg/mL"
molecule="CO/N=C(\\C(=O)N[C@@H]1C(=O)N2C(C(=O)O)=C(CSc3nc(=O)c(O)nn3C)CS[C@H]12)c1csc(N)n1 [CEFTRIAXONE]" assay_metric=MIC measured="2 µg/mL"
molecule="NCC[C@H](O)C(=O)N[C@@H]1C[C@H](N)[C@@H](O[C@H]2O[C@H](CN)[C@@H](O)[C@H](O)[C@H]2O)[C@H](O)[C@H]1O[C@H]1O[C@H](CO)[C@@H](O)[C@H](N)[C@H]1O [AMIKACIN]" assay_metric=MIC measured="2 µg/mL"
molecule=C/C1=C\[C@H]2/C(=C(/C)CC[C@@]3(CO)C(=O)C=C(C(C)C)[C@@H]3CC1)OC(=O)[C@@H]2[C@H](C)O assay_metric=MIC measured="≥ 100 µg/mL"
molecule=COC(=O)[C@H]1[C@H](C)O[C@@]2(O)[C@H](C)CC[C@@]3(C)OC(=O)C=C(C(C)C)[C@@H]3C[C@H](O)/C(C)=C/[C@H]12 assay_metric=MIC measured="≥ 100 µg/mL"
molecule=C/C1=C\[C@H](O)C[C@]2(C)O[C@H]2C[C@@]2(C)C(=O)C=C(C(C)C)[C@@H]2CC1 assay_metric=MIC measured="≥ 100 µg/mL"
molecule=C/C1=C\[C@H](O)[C@H](O)C/C(C)=C/[C@@]2(C)OC(=O)C=C(C(C)C)[C@@H]2CC1 assay_metric=MIC measured="≥ 100 µg/mL"

Entry source: ChEMBL document CHEMBL4339249
